Every entry's value here was drawn from patent US10703764B2.

Items are presented alongside their recorded pIC50.
# system: BRD4 BD2 (Homo sapiens, UniProt O60885)
# test: AlphaScreen binding assay, BRD4 Bromodomain 2
pIC50: −log10 of the molar value.

molecule `CC(=O)N1c2ccc(-c3cnn(C4CC4)c3)cc2N(C(=O)Oc2ccc(C)nc2)C[C@@H]1C` , pIC50 observed: > 7.30

Entry `CCOC(=O)N1C[C@H](C)N(C(C)=O)c2ccc(-c3cccc(S(C)(=O)=O)c3)cc21` — recorded pIC50 = 6.30 to 7.30

Query `CCCn1cc(-c2ccc3c(c2)N(C(=O)c2ccco2)C[C@H](C)N3C(=O)C(F)(F)F)cn1` yields pIC50 of 6.30 to 7.30

Entry `CC(=O)N1c2ccc(-c3ccc(NS(=O)(=O)C4CC4)cc3)cc2N(C(=O)C2CC2)C[C@@H]1C` — recorded pIC50 = 6.30 to 7.30

pIC50 reading for `CC(=O)N1c2ccc(-c3cnn(CCO)c3)cc2N(C(=O)OC2CCC(F)(F)CC2)C[C@@H]1C` : 6.30 to 7.30

So, `CCOC(=O)N1C[C@H](C)N(C(C)=O)c2ccc(-c3cccc(S(=O)(=O)NC)c3)cc21` ? Its pIC50 was 6.30 to 7.30

Given item `CC(=O)N1c2ccc(-c3cnn(C4CCOCC4)c3)cc2N(C(=O)C2CC2)C[C@@H]1C` , the value recorded as its pIC50 is > 7.30

# molecule `CC(=O)N1c2ccc(-c3cccc(NS(C)(=O)=O)c3)cc2N(C(=O)OC2CCOCC2)C[C@@H]1C` ; its pIC50 = 6.30 to 7.30

###

# system: BRD4 BD2 (Homo sapiens)
# test: AlphaScreen binding assay, BRD4 Bromodomain 2
pIC50: −log10 of the molar value.
Measured pIC50, listed per entry.

Solved cases below.
pIC50 reading for `COC(=O)N1c2ccc(-c3ccc(C(=O)N(C)CC(=O)N(C)C)cc3)cc2N(C(=O)OC(C)C)C[C@@H]1C` : 6.30 to 7.30

Looking up `COc1ccc(OC(=O)N2C[C@H](C)N(C(C)=O)c3ccc(-c4cnn(C5CC5)c4)cc32)c(Cl)c1` , I see its pIC50 listed as 6.30 to 7.30

Documented pIC50 of `CC(=O)N1c2ccc(-c3cnn(C4COC4)c3)cc2N(C(=O)OC2CC(F)(F)C2)C[C@@H]1C` : > 7.30

Query `CC(=O)N1c2ccc(-c3ccc(C(=O)N4CC[C@H](N)C4)cc3)cc2N(C(=O)OC(C)C)C[C@@H]1C` yields pIC50 of 6.30 to 7.30

The recorded pIC50 for entry `CC(=O)N1c2ccc(-c3ccc(S(C)(=O)=O)cc3)cc2N(C(=O)CC#N)C[C@@H]1C` equals < 6.30

New cases:
Lab note: `COc1ccccc1OC(=O)N1C[C@H](C)N(C(C)=O)c2ccc(-c3ccc(S(C)(=O)=O)cc3)cc21` gave pIC50 of > 7.30

# molecule `CC(=O)N1c2ccc(-c3ccc(OCCN(C)C)cc3)cc2N(C(=O)c2ccco2)C[C@@H]1C` ; its pIC50 = > 7.30

Kindly note the recorded pIC50 for `CC(=O)N1c2ccc(-c3cc(Cl)cc(S(C)(=O)=O)c3)cc2N(C(=O)C2CCC2)C[C@@H]1C` , which is < 6.30

Record `CC(=O)N1c2ccc(-c3cnn(C4CCOCC4)c3)cc2N(C(=O)OC2CCCCC2)C[C@@H]1C` . Reported pIC50: > 7.30

# pIC50 (molecule: `CC(=O)N1c2ccc(-c3ccc(S(C)(=O)=O)cc3)cc2N(C(=O)c2ccc(Oc3cc(Cl)cc(Cl)c3)o2)C[C@@H]1C` ) is < 6.30

pIC50 recorded for this molecule, `COC(=O)N1c2ccc(-c3cnn(Cc4ccncc4)c3)cc2N(C(=O)OC(C)C)C[C@@H]1C` , is 6.30 to 7.30

###

# system: BRD4 BD1 (Homo sapiens)
# test: AlphaScreen binding assay, BRD4 Bromodomain 1
experimentalEndpoint: IC50

Field IC50 (entry `COc1cc(-c2ccc3c(c2)N(C(=O)c2ccco2)C[C@H](C)N3C(C)=O)ccn1` ) reads 1000 to 10000 nM

// sample `CC(=O)N1c2ccc(-c3ccc(NS(C)(=O)=O)cc3)cc2N(C(=O)OC2CCC(F)(F)CC2)C[C@@H]1C` , its IC50 was 100 to 1000 nM

Recorded result, `CC(=O)N1c2ccc(-c3ccc(F)c(S(C)(=O)=O)c3)cc2N(C(=O)OC2CCCCC2)C[C@@H]1C` , IC50: 1000 to 10000 nM

Next:
Measured IC50 of `CC(=O)N1c2ccc(-c3ccc(S(C)(=O)=O)cc3)cc2N(c2ncc(-c3ccccc3)cn2)C[C@@H]1C` : 1000 to 10000 nM

# IC50 of `CCOC(=O)N1C[C@H](C)N(C(C)=O)c2ccc(-c3ccc(N4CCOCC4)cc3)cc21` = 1000 to 10000 nM

Looking up `CC(=O)N1c2ccc(-c3ccc(S(=O)(=O)C4CC4)cc3)cc2N(C(=O)c2ccco2)C[C@@H]1C` , I see its IC50 listed as 100 to 1000 nM

So, `CC(=O)N1c2ccc(-c3cnn(CCF)c3)cc2N(C(=O)C2CC2)C[C@@H]1C` ? Its IC50 was 100 to 1000 nM

###

IC50 values, listed per item
# system: BRD4 BD2 (Homo sapiens, UniProt O60885)
# test: AlphaScreen binding assay, BRD4 Bromodomain 2

Answered cases to consult:
The value of IC50 measured for the compound `CC(=O)N1c2ccc(-c3cc(Cl)cc(S(C)(=O)=O)c3)cc2N(C(=O)C2CC2)C[C@@H]1C` turned out to be > 500 nM

`CNS(=O)(=O)c1ccc(-c2ccc3c(c2)N(C(=O)c2ccco2)C[C@H](C)N3C(C)=O)cc1` yielded IC50 of < 50 nM

Documented IC50 of `CC(=O)N1c2ccc(-c3ccc(N4CCOCC4)cc3)cc2N(C(=O)OC2CCCCC2)C[C@@H]1C` : 50 to 500 nM

Input `CCS(=O)(=O)c1cccc(-c2ccc3c(c2)N(C(=O)C2CC2)C[C@H](C)N3C(C)=O)c1` . Output IC50: 50 to 500 nM

Per the records, this compound ( `COC(=O)N1c2ccc(-c3cnn(C(C)(C)CO)c3)cc2N(C(=O)Oc2ccccn2)C[C@@H]1C` ) has IC50 equal to 50 to 500 nM

Consider the additional compound presented here.
Reported IC50 of `CC(=O)N1c2ccccc2N(C(=O)c2ccc3ccccc3c2)C[C@@H]1C` : > 500 nM

###

# system: BRD4 BD2 (Homo sapiens)
# test: AlphaScreen binding assay, BRD4 Bromodomain 2
pIC50: −log10 of the molar value.
experimentalEndpoint: pIC50

Record excerpt, results attached:
// COc1cccc(S(=O)(=O)N2C[C@H](C)N(C(C)=O)c3ccccc32)c1 [Example I-945] : pIC50 value = < 6.30

Please fill in: pIC50 reported for CCCS(=O)(=O)c1ccc(-c2ccc3c(c2)N(C(=O)OC2CCCCC2)C[C@H](C)N3C(C)=O)cc1 [Example I-1235] = 6.30 to 7.30

Form field pIC50, entry C[C@H]1CN(C(=O)C2CC2)c2cc(-c3ccc(C(=O)N4CCNCC4)cc3)ccc2N1C(=O)C1CC1 [Example I-438] : 6.30 to 7.30

Consider now this further molecule.
For record CC(=O)N1c2ccc(-c3ccc(S(C)(=O)=O)cc3)cc2N(C(=O)C2CCCC2)C[C@@H]1C [Example I-244] the listed pIC50 is 6.30 to 7.30

###

# system: BRD4 BD2 (Homo sapiens)
# test: AlphaScreen binding assay, BRD4 Bromodomain 2
pIC50: −log10 of the molar value.
experimentalEndpoint: pIC50

Documented pIC50 of `CC(=O)N1c2ccccc2N(C(=O)c2cnn(-c3ccccc3)c2C(F)(F)F)C[C@@H]1C` : < 6.30

What the record says about `CC(=O)N1c2ccc(-c3cnn(CCF)c3)cc2N(C(=O)C2CC2)C[C@@H]1C` : pIC50 is 6.30 to 7.30

Quick note, pIC50 for `CC(=O)N1c2ccccc2N(C(=O)c2ccnc3ccccc23)C[C@@H]1C` landed at < 6.30

Entry `COC(=O)c1ccc(OC(=O)N2C[C@H](C)N(C(C)=O)c3ccc(-c4ccc(S(C)(=O)=O)cc4)cc32)cc1` — recorded pIC50 = > 7.30

pIC50 recorded for this compound, `CC(=O)N1c2ccc(-c3ccc(CS(N)(=O)=O)cc3)cc2N(C(=O)c2ccco2)C[C@@H]1C` , is > 7.30

---
Noted for `C[C@H]1CN(C(=O)C2CC2)c2cc(-c3cnc(N)cn3)ccc2N1C(=O)C1CC1` : its pIC50 reads 6.30 to 7.30

Form field pIC50, entry `CC(=O)N1c2ccc(-c3ccc(S(C)(=O)=O)cc3)cc2N(C(=O)c2ccc(S(C)(=O)=O)o2)C[C@@H]1C` : < 6.30

Sample `CC(=O)N1c2ccc(-c3ccnc(N4CCOCC4)c3)cc2N(C(=O)c2ccco2)C[C@@H]1C` ; pIC50 observed: 6.30 to 7.30

Entry `CC(=O)N1c2ccc(-c3cnn(CCC(N)=O)c3)cc2N(C(=O)OC(C)C)C[C@@H]1C` , pIC50 reported as > 7.30

Documented pIC50 of CC(=O)N1c2ccc(-c3ccc(S(C)(=O)=O)cc3)cc2N(C(=O)c2cc3cc(Cl)ccc3[nH]2)CC1C (stereo not drawn) : 6.30 to 7.30

Kindly note the recorded pIC50 for `CC(=O)N1c2ccc(-c3cnn(CC(C)(C)O)c3)cc2N(C(=O)OC2CC(F)(F)C2)C[C@@H]1C` , which is 6.30 to 7.30

The value of pIC50 measured for the compound `COc1ncc(F)cc1OC(=O)N1C[C@H](C)N(C(C)=O)c2ccc(-c3cnn(C4CC4)c3)cc21` turned out to be 6.30 to 7.30

Record summary for `CC(=O)N1c2ccc(-c3cccc(S(N)(=O)=O)c3)cc2N(C(=O)c2ccco2)C[C@@H]1C` : reported pIC50 = > 7.30

// `CC(=O)Nc1cc2c(cc1-c1cnn(CC(C)(C)O)c1)N(C(=O)OC(C)C)C[C@H](C)N2C(C)=O` : pIC50 value = 6.30 to 7.30

Summary for this compound, `CC(=O)N1c2ccc(-c3cnn(Cc4cncnc4)c3)cc2N(C(=O)C2CC2)C[C@@H]1C` : pIC50 is > 7.30
